Biological target: Adenosine deaminase (Bos taurus)
propertyLabel: pKi
Friendly reminder that pKi comes from taking -log10 of the concentration in mol/L.

In plain terms, Nc1ncnc2c1ncn2[C@H]1CN[C@@H](CO)C1 has a documented pKi of 4.07
